# System: MS2 coat protein
# ASSAY_COMMENT: apparent KD of MS2 coat protein; designed switch direction (-1 OFF switch, 1 ON switch): -1; higher = weaker reporter binding
# PARTICULARS: input ligand: FMN 200 uM
apparent KD of MS2 coat protein by entry:
Entry rule: numbers only, all in nM.

Here's what some known entries look like.
{"RESIDUE_CODES": "UGAGGACAUGAGGAUCACCCAUGUAAGGAUAUGCGGAGAGUUUGGAGAGGUUGAGGAGGCAGAAGGUACGGGAU [JR_Exclu1_Sub046] (Eterna round: R96, puzzle: Exclusion 1)", "SCALE_UNIT": "nM", "VAL": 144}
{"RESIDUE_CODES": "GUGAGGGAGUGAGGAUAUCAGGGAGAUAAGAAAUGAGAAGGUACAUGAGGAUCACCCAUGUAAGAGUAGGGAAGAGAGAAGAGU [Default title] (Eterna round: R96, puzzle: Exclusion NG 1)", "SCALE_UNIT": "nM", "VAL": 69.3}
{"RESIDUE_CODES": "CUCUUACAUGAGGAUCACCCAUGUGAGGAUAUGCCCGGAGUAGCAGCAGAUCCUCUGGGCAGAAGGCACGUAGG [Eternabot (L1) Solution 98] (Eterna round: R97, puzzle: Exclusion 1)", "SCALE_UNIT": "nM", "VAL": 144}
{"RESIDUE_CODES": "GAUUGAGAGCAGGAUAUCUUAGAAAUGUAUGAAAGAGAAGGGCUCACAUGAGGAUCACCCAUGUGGUCCUAGAU [JL Dibiri mod 17] (Eterna round: R96, puzzle: Exclusion 6)", "SCALE_UNIT": "nM", "VAL": 162}
{"RESIDUE_CODES": "CUUAUGGUCCAUACCUAGAACAUGAGGAUCACCCAUGUAAUACAUGACACCUACCUUAAGCACAGCUCGUCUUGUAG [Eternabot (Original) Solution 30] (Eterna round: R97, puzzle: Sensor, turn-off variant 1)", "SCALE_UNIT": "nM", "VAL": 48.9}
{"RESIDUE_CODES": "GAAUGAGAGCAGGAUAUCUUAUAAAUGUAUGAAAGAGAAGGGCUCACAUGAGGAUCACCCAUGUGGUCCUAGAA [jl-ex6-4.78 jandersonlee mod] (Eterna round: R97, puzzle: Exclusion 6)", "SCALE_UNIT": "nM", "VAL": 506}

Form field apparent KD of MS2 coat protein, entry GCACGGAGUGUAGGAUAUCUGUGCGAUUAGCUCAGAGAAGGACAUGAGGAUCACCCAUGUGUGUUCCAAUAAUAAAAUCCGUGC [Eli exng1 - 063] (Eterna round: R96, puzzle: Exclusion NG 1) : 1500

Form field apparent KD of MS2 coat protein, entry AUAAAGCAGUCAGGAUAUAUGAGAGGUCGUUUCAUAGAAGGGACAGCUCGUGCGUGGCUGACAUGAGGAUCACCCAUGUACGUU [Enrizala] (Eterna round: R96, puzzle: Exclusion NG 1) : 229

Form field apparent KD of MS2 coat protein, entry CCCGUGUGAGGAUAUACUCUAAGCAAUGUCAGUUGCUACAGGUAGAAGGCACAUGAGGAUCACCCAUGUCCCGG [EX4 C.24] (Eterna round: R97, puzzle: Exclusion 4) : 130

Form field apparent KD of MS2 coat protein, entry GAUCAUGCAGGAUAUACAUAAACCAUGAAAACAUGGCUCAAACAUGAGGAUCACCCAUGUAGAAGGGCAUGAUC [Omei Ex2 A19] (Eterna round: R97, puzzle: Exclusion 2) : 69.1

----------
# Tested on: MS2 coat protein
# ASSAY_COMMENT: apparent KD of MS2 coat protein; designed switch direction (-1 OFF switch, 1 ON switch): -1; higher = weaker reporter binding
# PARTICULARS: input ligand: none
Kind request: treat 20 nM as inclusive, so apparent KD of MS2 coat protein at 20 nM or higher is rule met, anything lower is rule not met.

Illustrative cases are given below, each with its answer.
{"RESIDUE_CODES": "GCCGAAAGUGUGAGGAUAUACCUAUGGAUACAUAGGUAGAAGGCACAUGAGGAUCACCCAUGUUCCUCAUCGGC [Eli bmx4 4.17] (Eterna round: R97, puzzle: Brourd's mod of Exclusion 4)", "TARGET_OR_SYSTEM": "MS2 coat protein", "CLASS_LABEL": "rule met"}
{"RESIDUE_CODES": "CUUUCGUCUGUGGGUGGUGACAUGAGGAUCACCCAUGUUUUGCUCGUCUUGUGCCGGGCCCGGCGCCCGGGCCCGGC [-38.7, -62.6, A 8%] (Eterna round: R97, puzzle: Sensor, turn-off variant 1)", "TARGET_OR_SYSTEM": "MS2 coat protein", "CLASS_LABEL": "rule met"}
{"RESIDUE_CODES": "UGCGGAAGAGGAUAUACAUUGAAUUUGAUUCAUGUAAAACUACAUGAGGAUCACCCAUGUAGAAGGCUUUCGCU [Mat - Exclusion 2 - JL Mod - D66] (Eterna round: R97, puzzle: Exclusion 2)", "TARGET_OR_SYSTEM": "MS2 coat protein", "CLASS_LABEL": "rule not met"}

# check: apparent KD of MS2 coat protein of UCGUGAUUAGAGGAUAUAUUUUGAGUCAGAACAAUAGAAGGCUAAACAUGAGGAUCACCCAUGUAUGUGUAAAA [JR_Ex6_Sub063] (Eterna round: R97, puzzle: Exclusion 6) is greater than or equal to 20 nM
rule met

# check: apparent KD of MS2 coat protein of CCCUCACUUGAGGAUCACCCAAGUCAGGAUAUCUCACCCGUCCUGCAAGACGGGUCACAGAGAAGGGACUAAAA [Araatra] (Eterna round: R97, puzzle: Exclusion 1) is greater than or equal to 20 nM
rule met

# check: apparent KD of MS2 coat protein of GCAGCAACUCUAAUCAAAACCACAUGAGGAUCACCCAUGUCUCAGGAUAUGGUCUGGAUUACAGGCCAGAAGGGAGAAAGCUGC [Eli exng3 - 050] (Eterna round: R96, puzzle: Exclusion NG 3) is greater than or equal to 20 nM
rule not met

# check: apparent KD of MS2 coat protein of GUGAUCUAUCAUGUAAUGAACAUGAGGAUCACCCAUGUAGGCAAGUUUUUUGCUCGUCACAUAAUAAGAUAGAUCAC [Antenna 19 - Jieux - Sensor, turn-off variant 1] (Eterna round: R97, puzzle: Sensor, turn-off variant 1) is greater than or equal to 20 nM
rule not met

# check: apparent KD of MS2 coat protein of UGAUCUAGCGGAGGAUAUACAUGAGGAUCACCCAUGUAGAUGAGUGUACCGUAGUGCACUCUUGUGUAGAAGGCCGCUAGAUCU [JL ENG2 3.56] (Eterna round: R96, puzzle: Exclusion NG 2) is greater than or equal to 20 nM
rule not met

----------
# Test system: MS2 coat protein
# ASSAY_COMMENT: apparent KD of MS2 coat protein; designed switch direction (-1 OFF switch, 1 ON switch): -1; higher = weaker reporter binding
# PARTICULARS: input ligand: FMN 200 uM
RESULT_TYPE: apparent KD of MS2 coat protein

Here's what some known entries look like.
{"RESIDUE_CODES": "GUGCAACAUGAGGAUCACCCAUGUCAGGAUAUGCGAAUUUCAUCAAAAGAUGAAAUUUGCAGAAGGGACUGUAC [Omei Ex1 A20] (Eterna round: R97, puzzle: Exclusion 1)", "apparent KD of MS2 coat protein": "0.0406 µM"}
{"RESIDUE_CODES": "GGUCCACAUGAGGAUCACCCAUGUUAGGAUAUCUCCCGCCUCCUCACUGGAGACGGACAGAGAAGGAACAUCAA [Vetibele] (Eterna round: R96, puzzle: Exclusion 1)", "apparent KD of MS2 coat protein": "0.104 µM"}
{"RESIDUE_CODES": "ACAUGAGGAUCACCCAUGUAAACAUGAUGGCUGAUGUAGAGCUAGGAUAUGAGUGACUUUCUAUCUCAGAAGGAGCUUGACUGG [Deportation 44 - Jieux - Exclusion NG 3] (Eterna round: R96, puzzle: Exclusion NG 3)", "apparent KD of MS2 coat protein": "0.0301 µM"}

# input for lookup
Form field apparent KD of MS2 coat protein, entry GAAUCGACAGGAUAUACAUGAGGAUCACCCAUGUAGUCAGAGAUGAUACCUCAACCUAGUAGAAGGGUCAGCGG [Eternabot (L2) Solution 17] (Eterna round: R97, puzzle: Exclusion 3) : 0.0455 µM

----------
apparent KD of K4 kissing-loop reporter by entry:
# Tested on: K4 kissing-loop RNA reporter;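 note: bound reporter read as fluorescence of individual clusters on recovered sequencing chips by microscopy, with normalized cluster intensities fitted with a binding model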
# ASSAY_COMMENT: apparent KD of K4 kissing-loop reporter; higher = weaker reporter binding
# PARTICULARS: Eterna round: R107; input ligand: tryptophan 2.4 mM
Entry rule: numbers only, all in µM.

Here's what some known entries look like.
{"RESIDUE_CODES": "AUGCGCGUGCGAUGUAAAUCGCACGCGCAUCGAGGACCGGUACGGCCGCCACUCGCUCGCGCCGAGUGAUGUUCGGCCGGCGAAC [#2 Same State - Tryptophan A Attempt #5 (HarryS)]", "SCALE_UNIT": "µM", "apparent KD of K4 kissing-loop reporter": 0.476}
{"RESIDUE_CODES": "UGUCUUCAGUGAUGUUGAUGACAACACUUAAAGGAUAUGCGAGAGAGCAGAAGGUUAAACAACGCGCAAAUCAAGGAGGGUCUAG [theeternabot_exclusion_KL_FMN_A_30]", "SCALE_UNIT": "µM", "apparent KD of K4 kissing-loop reporter": 0.174}
{"RESIDUE_CODES": "AGACUACCACACUGUCAAUAGACAGUGAGCUAGGAUAUGCUGAUAAGCAGAAGGAGUGAUGUUCCAAGGUAGUCAAUAAAAUAAU [FmnAX 13 G29+A66]", "SCALE_UNIT": "µM", "apparent KD of K4 kissing-loop reporter": 0.209}

Entry GGUCCGGGCUCGGCCGCCACUCCCUCCUGCCGGAAGGUGGGAUACCGAGUGAUGUUCGGUUGGAGGAGGACCGGGAGCCCGGACC [#2 Exclusion - Tryptophan B Attempt #13 (HarryS)] , K4 kissing-loop RNA reporter data, apparent KD of K4 kissing-loop reporter value: 0.129

Entry AAAUUGUUUAGAGGAUAUUCUUUAUUCGACAUAACCUUCUAUAAGGUGCAGUGAUGUUGCAAUAUAGGAGAAGGUUGAGUGAUAA [Exclusion FMN B Gf 15] , K4 kissing-loop RNA reporter data, apparent KD of K4 kissing-loop reporter value: 0.113

Entry GCGAACAUUCGCAGUGAUGUUGCGACGGAAGGAGCGCGUGAAAACGCAGGUAGGUCGCCGACAAAAUUAAUUUUAAUGUGUUCGC [Arginine A K4 27] , K4 kissing-loop RNA reporter data, apparent KD of K4 kissing-loop reporter value: 0.315
